For each entry below, report its IC50 value.
# system: CHK1 (Homo sapiens, UniProt O14757)
# Sequence (O14757 whole entry, species assumed): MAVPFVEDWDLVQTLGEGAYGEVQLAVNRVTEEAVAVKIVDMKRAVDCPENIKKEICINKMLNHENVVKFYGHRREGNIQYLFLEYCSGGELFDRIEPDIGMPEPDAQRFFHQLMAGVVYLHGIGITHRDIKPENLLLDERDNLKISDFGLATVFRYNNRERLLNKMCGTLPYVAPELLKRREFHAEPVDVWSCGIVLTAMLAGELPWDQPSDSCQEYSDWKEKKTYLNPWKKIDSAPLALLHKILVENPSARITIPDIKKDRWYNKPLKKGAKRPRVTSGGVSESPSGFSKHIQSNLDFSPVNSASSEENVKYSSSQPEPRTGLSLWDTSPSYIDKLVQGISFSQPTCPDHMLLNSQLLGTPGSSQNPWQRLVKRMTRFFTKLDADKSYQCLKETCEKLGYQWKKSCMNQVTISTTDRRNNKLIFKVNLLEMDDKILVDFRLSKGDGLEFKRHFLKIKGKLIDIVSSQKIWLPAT
# assayName: CHK1 kinase function inhibition assay (DELFIA, phosphorylation of a CDC25C peptide)
# conditionDescription: CHK1 1 nM, ATP 30 μM, 30 minutes at room temperature

Observe how each entry below is paired with its result.
COCCCOc1ccc(-c2cnc(Nc3cnc(C#N)cn3)cc2NCC2CCNCC2)cc1 | 100 to 1000 nM
N#Cc1cnc(Nc2cc(N[C@H]3CCCNC3)c(N)cn2)cn1 | 1000 to 10000 nM
COCc1ccc(-c2cnc(Nc3cnc(C#N)cn3)cc2NC[C@H]2CNCCO2)cc1 | ≤ 100 nM
COCCCc1cnc(Nc2cnc(C#N)cn2)cc1NC[C@H]1CNCCO1 | ≤ 100 nM
COCCNC(=O)c1cnc(Nc2cnc(C#N)cn2)cc1NCC1CCNCC1 | ≤ 100 nM

// each molecule listed below needs its IC50
1. COCc1ccc(-c2cnc(Nc3cnc(C#N)cn3)cc2NC2CCN(C)CC2)cc1
2. N#Cc1cnc(Nc2cc(N[C@H]3CC[C@H](O)CC3)ncn2)cn1
3. COCCN(C)C(=O)c1cnc(Nc2cnc(C#N)cn2)cc1NCC1CCNCC1

Solution:
1: ≤ 100 nM; 2: 1000 to 10000 nM; 3: 100 to 1000 nM

Required: IC50, one value per molecule below.
1. N#Cc1cnc(Nc2cc(OCC3CCNCC3)c(N)cn2)cn1
2. NCCCNc1cc(Nc2cnccn2)ncn1

Solution:
1: 1000 to 10000 nM; 2: 1000 to 10000 nM

* * *

Can you tell me IC50 for the items I'm about to list?
# system: CHK1 (Homo sapiens, UniProt O14757)
# assayName: CHK1 kinase function inhibition assay (DELFIA, phosphorylation of a CDC25C peptide)
# conditionDescription: CHK1 1 nM, ATP 30 μM, 30 minutes at room temperature

For orientation, consider the following solved cases.
N#Cc1cnc(Nc2cc(OCC3CCOC3)c(NC(=O)CCC3CCNCC3)cn2)cn1 (stereo not shown) | 1 to 10 µM
N#Cc1cnc(Nc2cc(NCC3CCCNC3)c(NC(=O)CCN3CCOCC3)cn2)cn1 (stereo not shown) | 0.1 to 1 µM
N#Cc1cnc(Nc2cc(N[C@@H]3CCCNC3)c(-n3cccc3)cn2)cn1 | 0.1 to 1 µM

Proceeding to the next compound to report its IC50.
Problem: Any idea what IC50 was measured for `CN(C)CCNc1cc(Nc2cnc(C#N)cn2)ncc1N` ?
Solution: 1 to 10 µM

* * *

# system: CHK1 (Homo sapiens, UniProt O14757)
# assayName: CHK1 kinase function inhibition assay (DELFIA, phosphorylation of a CDC25C peptide)
# conditionDescription: CHK1 1 nM, ATP 30 μM, 30 minutes at room temperature
readoutType: IC50

COc1cccc(-c2cnc(Nc3cnc(C#N)cn3)cc2NC2CCN(C)CC2)c1 | ≤ 0.1 µM
N#Cc1cnc(Nc2cc(NCC3CCNCC3)c(-c3ccc4c(c3)OCCO4)cn2)cn1 | 0.1 to 1 µM
COCCOc1ccc(-c2cnc(Nc3cnc(C#N)cn3)cc2NC2CCN(C)CC2)cc1 | ≤ 0.1 µM
COC/C=C/c1cnc(Nc2cnc(C#N)cn2)cc1NC1CCN(C)CC1 | ≤ 0.1 µM

Hi! Can you tell me IC50 for each of these molecules?
1. COC(=O)c1cnc(Nc2cnc(C#N)cn2)cc1N[C@H]1C[C@H]2CC[C@@H](C1)N2Cc1ccccc1
2. COC(=O)c1cnc(Nc2cnc(C#N)cn2)cc1NC1CC2CCCC(C1)N2C (centres unmarked)
3. N#Cc1cnc(Nc2cc(N[C@H]3CCCNC3)ncn2)cn1

Solution:
1 to 10 µM
0.1 to 1 µM
1 to 10 µM

Problem: Lab request: please report IC50 under test system CHK1 (Homo sapiens, UniProt O14757) for `N#Cc1cnc(Nc2cc(NCC3CCNCC3)c(CCCCO)cn2)cn1`
Solution: 0.1 to 1 µM

* * *

# system: UniProt O14757
# assayName: CHK1 kinase function inhibition assay (DELFIA, phosphorylation of a CDC25C peptide)
# conditionDescription: CHK1 1 nM, ATP 30 μM, 30 minutes at room temperature
pIC50: −log10 of the molar value.
Exercise: for every item that follows, state its recorded pIC50.

Past entries and their recorded results:
N#Cc1cnc(Nc2cc(NCC3CCNCC3)c(C(=O)N3CCOCC3)cn2)cn1 | 5.00 to 6.00
COc1ccc(NC(=O)c2cnc(Nc3cnc(C#N)cn3)cc2NCC2CCNCC2)cc1 | ≥ 7.00
CN(CC1CCNCC1)c1cc(Nc2cnc(C#N)cn2)ncn1 | 5.00 to 6.00
COCc1cccc(-c2cnc(Nc3cnc(C#N)cn3)cc2NC2CCN(C)CC2)c1 | ≥ 7.00
COC(=O)c1cnc(Nc2cnc(C#N)cn2)cc1N[C@H]1CC2CC[C@H](C1)N2C(=O)OC(C)(C)C (stereo in doubt) | 5.00 to 6.00
CN1CCC(N(C)c2cc(Nc3cnc(C#N)cn3)ncc2Cl)CC1 | 6.00 to 7.00
CN1CCC(Nc2cc(Nc3cnc(C#N)cn3)ncc2-n2cccc2)CC1 | ≥ 7.00
N#Cc1cnc(Nc2cc(NCC3CCNCC3)c(C(=O)Nc3ccc(N4CCOCC4)cc3)cn2)cn1 | ≥ 7.00

Each compound below has a recorded value; state its pIC50.
1. COC(=O)c1cnc(Nc2cnc(C#N)cn2)cc1NCC1(C)CCNCC1
2. N#Cc1cnc(Nc2cc(NC[C@@H]3CCCNC3)c(N)cn2)cn1
3. COc1ccc(-c2cnc(Nc3cnc(C#N)cn3)cc2NC2CCNCC2)cc1

Solution:
["≥ 7.00", "≥ 7.00", "≥ 7.00"]

Please go through the list and note pIC50 for each compound.
1. N#Cc1cnc(Nc2cc(NCC3CCCNC3)c(N3CC[C@H](O)C3)cn2)cn1 (stereo partly shown)
2. N#Cc1cnc(Nc2cc(N3CCC(C(N)c4ccccc4)CC3)ncn2)cn1 (stereo not shown)
3. CC(Nc1cc(Nc2cnc(C#N)cn2)ncn1)C1CCNCC1 (stereo not shown)

Solution:
1: ≥ 7.00; 2: 5.00 to 6.00; 3: 5.00 to 6.00

Each of the following entries comes with a recorded value; kindly state pIC50 for each.
1. N#Cc1cnc(Nc2cc(NCCCCO)ncn2)cn1
2. CN1CCC(Nc2cc(Nc3cnc(C#N)cn3)ncc2Br)CC1
3. CN1CCC(Nc2cc(Nc3cnc(C#N)cn3)ncc2-c2ccc(N3CCOCC3)cc2)CC1
4. N#Cc1cnc(Nc2cc(NCC3CCCNC3)c(N)cn2)cn1 (stereo not shown)
5. N#Cc1cnc(Nc2cc(NCC3CCNCC3)c(NC(=O)CCN3CCCCC3)cn2)cn1
6. COC(=O)c1cnc(Nc2cnc(C#N)cn2)cc1NCC[C@H]1CNCCO1
7. N#Cc1cnc(Nc2cc(N(CCN)CC(N)=O)ncn2)cn1
8. COC(=O)c1cnc(Nc2cnc(C#N)cn2)cc1N(C)C1CCN(C)CC1

Solution:
1: 5.00 to 6.00; 2: ≥ 7.00; 3: ≥ 7.00; 4: ≥ 7.00; 5: 5.00 to 6.00; 6: ≥ 7.00; 7: 5.00 to 6.00; 8: ≥ 7.00

Provide reported pIC50 for each item, in the same order as listed.
1. COC(=O)c1cnc(Nc2cnc(C#N)cn2)cc1NC1C[C@H]2CC[C@@H](C1)N2Cc1ccccc1 (stereo partly shown)
2. COC(=O)c1cnc(Nc2cnc(OC)cn2)cc1NCC1CNCCO1 (stereo not shown)
3. CCOC(=O)c1cc(-c2cnc(Nc3cnc(C#N)cn3)cc2NCC2CCNCC2)cs1
4. Cc1ncsc1CCC(=O)Nc1cnc(Nc2cnc(C#N)cn2)cc1NCC1CCCNC1 (stereo not shown)

Solution:
["≥ 7.00", "6.00 to 7.00", "≥ 7.00", "5.00 to 6.00"]

* * *

Field: pIC50. Provide a value for each of the molecules that follow.
# system: CHK1 (Homo sapiens, UniProt O14757)
# assayName: CHK1 kinase function inhibition assay (DELFIA, phosphorylation of a CDC25C peptide)
# conditionDescription: CHK1 1 nM, ATP 30 μM, 30 minutes at room temperature
# Method: Measurement of Inhibition of CHK1 Kinase Function CHK1 kinase function was measured in a DELFIA® assay in order to monitor phosphorylation of a CDC25C peptide using a specific phospho antibody. The reaction mixture was incubated for 30 minutes at room temperature and then stopped by the addition of buffer (125 μL) containing 40 mM EDTA, 0.05% Tween 20, 0.1% BSA in TBS (10× concentrate, Sigma). […]
pIC50: −log10 of the molar value.

Record excerpt, results attached:
N#Cc1cnc(Nc2cc(NCC3CCCNC3)c(-n3ccc(C(=O)NCCCO)c3)cn2)cn1 (stereo not shown) | ≥ 7.00
COCCCc1cnc(Nc2cnc(C#N)cn2)cc1NCC1CCNCC1 | ≥ 7.00
CN(C)CC(=O)Nc1cnc(Nc2cnc(C#N)cn2)cc1OCC1CCNCC1 | 5.00 to 6.00

Problem: Returns the measured pIC50 for the input molecule. Input: N#Cc1cnc(Nc2cc(NCC3CCCNC3)c(-n3ccc(C(=O)O)c3)cn2)cn1 (stereo not shown)
Solution: 6.00 to 7.00
